Measured values drawn from PubChem BioAssay (NCI) for this set.

System: SN12C renal
Assay: NCI-60 one-dose screen, 48 h (100 = growth as untreated, 0 = no growth, -100 = all killed)
Details: 10 µM unless noted
This is part of a sample that, as a whole, favours compounds with a hit. Of some 83,000 tested, about 20% had one in any assay.
readout_kind: growth (%)
Report the value in % with no unit label.

Field: example entries. Status: answers known.
compound	growth, %
CC(=O)Nc1c(C(=O)Nc2ccccc2)sc2nc3c(cc12)C(OC(C)=O)CCC3 (stereo unspecified)	89.6
Oc1c(CCl)cc(Cl)cc1Cc1cc(Cl)cc(Cc2cc(Cl)cc(CCl)c2O)c1O	8.92
S=C(Nc1ccc(Cl)cc1)c1ccccn1	99.3
COC(=O)c1ccc2c(c1)NC(=O)[C@@H]1CCCN21	101
CN(CCC#N)C(=O)Nc1ccccc1	111
COC(=O)c1oc2c(C(=O)/C=C/c3ccc(OC)cc3)c(OCCCN3CCCCC3)ccc2c1C	22.5
N#Cc1c(-c2ccc(F)cc2)nc(N/N=C/c2c[nH]c3ccccc23)nc1N1CCOCC1	82.2
O=C1c2ccccc2C(=O)c2c1oc1c2c(=O)[nH]c2ccccc21	70.4

IN: What does the data say about its growth? Entry: C=C1C(=O)O[C@H]2[C@H]1CC/C(COC(=O)CCCCCCCCC(=O)OC/C1=C/CC[C@@]3(C)O[C@H]3[C@H]3OC(=O)C(=C)[C@@H]3CC1)=C\CC[C@@]1(C)O[C@@H]21
OUT: -1.39

IN: Also check C[C@H](Oc1cc(-c2cnn(C3CCNCC3)c2)cnc1N)c1c(Cl)ccc(F)c1Cl
OUT: 54.2

IN: Likewise for C#CCN1C(=O)c2ccccc2N(CC#C)C12CCN(Cc1cn(CC(=O)Nc3ccccc3C(N)=O)nn1)CC2 ?
OUT: 88.9

* * *

Test system: MDA-MB-231 breast
Test: NCI-60 one-dose screen, 48 h (100 = growth as untreated, 0 = no growth, -100 = all killed)
Settings: 10 µM unless noted
The panel holds about 83,000 compounds, 20% with a hit somewhere; the sample as a whole holds those more often.
Consider the following compounds and their measured growth readings.
Write the number in % without appending the unit.

// solved cases for growth follow
compound	u	observed_value
Cc1cccc(C)c1Nc1nnc(-c2ccc(F)cc2)o1	%	104
CCOC(=O)c1c(C)nc2c(c1N)CC(=O)N2CCc1ccccc1	%	31.8

Next item in the queue.
IN: I have this compound here, COc1ccc(C2CC(c3ccc(OC)cc3O)=NN2c2ccc(S(N)(=O)=O)cc2)cc1 (stereo not drawn) , and I need its recorded growth.
OUT: 61.1

* * *

Each item that follows carries a reported growth.
Test system: UACC-62 melanoma
Assay: NCI-60 one-dose screen, 48 h (100 = growth as untreated, 0 = no growth, -100 = all killed)
Settings: 10 µM unless noted
Compounds without any hit were thinned out: in the full panel of roughly 83,000, 20% have a hit. The source made the active and inactive calls. Rule for the calls: active = growth percent below 10; inactive = the rest.

Completed entries (count: 5):
compound	growth
CC(=O)c1cnc(-c2ccccc2)nc1CBr	84.3% (inactive)
CC(=O)c1ccc(NC(=O)CSc2nnc(-c3cc(-c4ccc(Cl)cc4)nc4ccccc34)o2)cc1	95.7% (inactive)
CCCS(=O)(=O)Nc1ccc(F)c(C(=O)c2c[nH]c3ncc(-c4ccc(OCCCC5CCCCN5)nc4)cc23)c1F (stereo not given)	-22% (active)
COc1ccc2oc(=O)cc(-c3c(C#N)c(N)n4nc(N)c(C#N)c4c3C#N)c2c1	107% (inactive)
O=C1Nc2ccc(Cl)cc2/C1=N/c1nc(-c2ccc(F)cc2)cs1	7.64% (active)

IN: # query: growth | item COc1ccc(-n2nc(C(=O)NCC(=O)O)nc2-c2ccccc2)cc1 | system: UACC-62 melanoma
OUT: 102% (inactive)

IN: Now consider CCOC(=O)CC[C@H](NC(=O)c1ccc(NC)c2ccccc12)C(=O)OCC .
OUT: 89.7% (inactive)

IN: Follow-up entry: COc1cc(/C=C/C(=O)c2ccc(NC(=O)CSc3nnc(-c4cc(OC)c(OC)c(OC)c4)n3-c3ccccc3)cc2)cc(OC)c1OC
OUT: 20.8% (inactive)

IN: Consider next the compound COc1cc(NC(=O)COc2cc(C)nc3ccc(OC)cc23)cc(OC)c1 in the same way.
OUT: 74.4% (inactive)

IN: What would you report for COc1ccc2oc(=O)cc(-c3nc4ccc(N)cc4[nH]3)c2c1 ?
OUT: 91.5% (inactive)

IN: Also check CC(=O)O[C@@H]1C[C@]2(C)[C@H]3[C@H](O)C[C@@H]4C5=CC(C)(C)CC[C@]5(C)CC[C@@]4(C)[C@]3(C)CC[C@H]2C(C)(C)[C@H]1O
OUT: 97.4% (inactive)

IN: What about this compound? Nc1ccc2c(c1)C(=O)C(=O)c1c-2nc2ccccn12
OUT: -85.3% (active)

IN: For O=C(Nc1ccccc1)NS(=O)(=O)c1c[nH]c(=S)[nH]c1=O then?
OUT: 99.5% (inactive)

IN: Query CCC[S@@](=O)c1ccc2nc(NC(=O)OC)[nH]c2c1 next
OUT: 72.7% (inactive)

IN: Next: NS(=O)(=O)c1ccc(N2Cc3cc(Cl)ccc3OC3=C2C(=O)N(CC2CCCCC2)C3=O)cc1
OUT: -76.1% (active)

IN: Now this one: c1ccc(Sc2ncccn2)nc1
OUT: 93.6% (inactive)

IN: Same read-out for COc1ccc(Cl)c([N+](=O)[O-])c1 ?
OUT: 97% (inactive)

IN: What do we get for C=C1C(=O)O[C@H]2[C@H]1CCC(/C=N/c1ncc(Br)cc1N)=C\CC[C@@]1(C)O[C@@H]21 ?
OUT: 22.5% (inactive)

IN: Moving on to the next compound: O=C1NCc2ccc3c(-c4cccc(Cl)c4)c[nH]c3c21
OUT: 27% (inactive)

IN: // repeat for Cc1nccc2c3ccc(OCc4cn(-c5ccccc5)nn4)cc3n(CCCc3ccccc3)c12 and report
OUT: 83.3% (inactive)
